Examples of compounds with documented Bliss excess follow.
Test system: MEL-JUSO (Melanoma)
ASSAY: Bliss excess, mean over the matrix (fraction); higher = more synergy;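 further: after 72 h of two-drug dosing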
Lab note: jot down the number only; don't add units.

COMPOUND	Bliss excess
C=CCn1c(=O)c2cnc(Nc3ccc(N4CCN(C)CC4)cc3)nc2n1-c1cccc(C(C)(C)O)n1 [AZD1775] + C[C@@H]1COCCN1C2=NC(=NC(=C2)C3(CC3)[S@](=N)(=O)C)C4=C5C=CNC5=NC=C4 [AZD6738] (first compound max 1 µM, partner max 10 µM)	0.0009
CN(CCO)CC[C@H](CSc1ccccc1)Nc1ccc(S(=O)(=O)NC(=O)c2ccc(N3CCC([C@@H](O)c4ccccc4-c4ccc(Cl)cc4)CC3)cc2)cc1S(=O)(=O)C(F)(F)F [AZD4320] + C1CN(CCC1(C(=O)N[C@@H](CCO)C2=CC=C(C=C2)Cl)N)C3=NC=NC4=C3C=CN4 [Capivasertib] (first compound max 1 µM, 7x7, partner max 3 µM)	-0.0472
Cc1c2c(nn1C)CSCc1cc(n(C)n1)CSc1cc(c3ccccc3c1)OCCCc1c(C(=O)O)n(C)c3c-2c(Cl)ccc13 [AZD5991] + Cc1cc2ncnn2cc1Nc1ncc2c(n1)n(C1CCOCC1)c(=O)n2C [AZD7648] (first compound max 1 µM, 7x7, partner max 10 µM)	-0.0453

// returns reported Bliss excess for input CC1(C)CCC(CN2CCN(c3ccc(C(=O)NS(=O)(=O)c4ccc(NCC5CCOCC5)c([N+](=O)[O-])c4)c(Oc4cnc5[nH]ccc5c4)c3)CC2)=C(c2ccc(Cl)cc2)C1 [Venetoclax] + Cn1cnc2c(F)c(Nc3ccc(Br)cc3Cl)c(C(=O)NOCCO)cc21 [Selumetinib] (first compound max 1 µM, 7x7, partner max 3 µM)
-0.0481

Record request: Bliss excess value, item COc1nnc2ccc(N3CCC(c4ccc(OCCN5CCN(C)C(=O)[C@H]5C)cc4)CC3)nn12 [AZD5153] + C[C@@H]1COCCN1C2=NC(=NC(=C2)C3(CC3)[S@](=N)(=O)C)C4=C5C=CNC5=NC=C4 [AZD6738] (first compound max 1 µM, 7x7, partner max 10 µM)
0.0624

Need Bliss excess of CC1(C)CCC(CN2CCN(c3ccc(C(=O)NS(=O)(=O)c4ccc(NCC5CCOCC5)c([N+](=O)[O-])c4)c(Oc4cnc5[nH]ccc5c4)c3)CC2)=C(c2ccc(Cl)cc2)C1 [Venetoclax] + CCN(CCO)CCCOc1ccc2c(Nc3cc(CC(=O)Nc4cccc(F)c4)[nH]n3)ncnc2c1 [AZD2811] (first compound max 1 µM, 7x7, partner max 1 µM) , thanks.
-0.0165

Request the reported Bliss excess associated with CS(=O)(=O)CCNCc1ccc(-c2ccc3ncnc(Nc4ccc(OCc5cccc(F)c5)c(Cl)c4)c3c2)o1 [Lapatinib] + C[C@@H](Oc1cc(-c2cnn(C3CCNCC3)c2)cnc1N)c1c(Cl)ccc(F)c1Cl [Crizotinib] (first compound max 10 µM, 7x7, partner max 10 µM)
-0.034

---

Test system: BFTC-905 (Bladder Carcinoma)
ASSAY: Bliss excess, mean over the matrix (fraction); higher = more synergy
Cut-off 0.03 on Bliss excess, inclusive. At or above means true; below means false.

Answered examples (6):
COMPOUND	ASSAY_TARGET	LABEL_VALUE
C[C@@H]1COCCN1c1cc(C2([S@](C)(=N)=O)CC2)nc(-c2ccnc3[nH]ccc23)n1 [AZD6738] + C1CC(C1)(C(=O)[O-])C(=O)[O-].N.N.[Pt+2] [Carboplatin] (first compound max 10 µM, 7x7, partner max 10 µM)	BFTC-905 (Bladder Carcinoma)	true
NC1(C(=O)N[C@@H](CCO)c2ccc(Cl)cc2)CCN(c2ncnc3[nH]ccc23)CC1 [Capivasertib] + CCN(CCO)CCCOc1ccc2c(Nc3cc(CC(=O)Nc4cccc(F)c4)[nH]n3)ncnc2c1 [AZD2811] (first compound max 10 µM, 7x7, partner max 1 µM)	BFTC-905 (Bladder Carcinoma)	false
CC1(C)CCC(CN2CCN(c3ccc(C(=O)NS(=O)(=O)c4ccc(NCC5CCOCC5)c([N+](=O)[O-])c4)c(Oc4cnc5[nH]ccc5c4)c3)CC2)=C(c2ccc(Cl)cc2)C1 [Venetoclax] + CCN(CCO)CCCOc1ccc2c(Nc3cc(CC(=O)Nc4cccc(F)c4)[nH]n3)ncnc2c1 [AZD2811] (first compound max 1 µM, 7x7, partner max 1 µM)	BFTC-905 (Bladder Carcinoma)	false
C[C@@H]1COCCN1c1cc(C2([S@](C)(=N)=O)CC2)nc(-c2ccnc3[nH]ccc23)n1 [AZD6738] + Nc1ccn([C@@H]2O[C@H](CO)[C@@H](O)C2(F)F)c(=O)n1 [Gemcitabine] (first compound max 10 µM, 7x7, partner max 0.3 µM)	BFTC-905 (Bladder Carcinoma)	true
C[C@@H](Oc1cc(-c2cnn(C3CCNCC3)c2)cnc1N)c1c(Cl)ccc(F)c1Cl [Crizotinib] + CC1=C(C(=CC=C1)Cl)NC(=O)C2=CN=C(S2)NC3=CC(=NC(=N3)C)N4CCN(CC4)CCO [Dasatinib] (first compound max 10 µM, 7x7, partner max 2 µM)	BFTC-905 (Bladder Carcinoma)	true
COc1nnc2ccc(N3CCC(c4ccc(OCCN5CCN(C)C(=O)[C@H]5C)cc4)CC3)nn12 [AZD5153] + C[C@@H]1COCCN1C2=NC(=NC(=C2)C3(CC3)[S@](=N)(=O)C)C4=C5C=CNC5=NC=C4 [AZD6738] (first compound max 1 µM, 7x7, partner max 10 µM)	BFTC-905 (Bladder Carcinoma)	false

Turning now to a further compound:
Answer whether Bliss excess of O=C(c1cc(Cc2n[nH]c(=O)c3ccccc23)ccc1F)N1CCN(C(=O)C2CC2)CC1 [Olaparib] + CC1(C)CCC(CN2CCN(c3ccc(C(=O)NS(=O)(=O)c4ccc(NCC5CCOCC5)c([N+](=O)[O-])c4)c(Oc4cnc5[nH]ccc5c4)c3)CC2)=C(c2ccc(Cl)cc2)C1 [Venetoclax] (first compound max 10 µM, 7x7, partner max 1 µM) is greater than or equal to 0.03.
false
